Each recorded value in this set is attributed to the supplement of paper PMC10567573.

B1: ZNF649 (parent)
chain: LVAHQRYHTGKTPFVCPECGQPCS

- Variants of: B1
- TEST_DETAILS: protein stability index of a GFP-peptide fusion (GPS, HEK-293T) (PSI 1-6); higher = more stable;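 also: lentivirally expressed fusions sorted by FACS into six bins by GFP to DsRed ratio, PSI derived from sequencing read proportions per bin multiplied by bin number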
- MEASUREMENT_PARAMETERS: c terminus: a fixed tail appended
PROPERTY_NAME: protein stability index

1) Y7I; 3.21
2) G10I; 3.5
3) G20Y; 2.52
4) T12F; 2.77
5) Q21Y; 2.77
6) P17V; 2.59
7) T12Q; 2.68
8) F14I; 3.61
9) P17G; 2.92
10) Y7N; 3.73
11) P17R; 2.26
12) P13Q; 3.32
13) Q5G; 2.98
14) H4P; 3.4
15) F14S; 3.93
16) P22N; 3.77
17) E18N; 2.34
18) V2S; 3.49
19) G20K; 2.86
20) K11Q; 3.67
21) A3D; 4.3
22) S24D; 3.76
23) G20W; 2.55
24) C23P; 3.47
25) P22I; 3.25
26) T12M; 3.12
27) P17S; 3.37
28) C23R; 3.19
29) T12L; 2.96
30) E18P; 1.91
31) R6T; 3.48
32) S24F; 3.71
33) P22M; 2.9
34) C23W; 2.42
35) T9A; 2.77
36) C16L; 2.5
37) H8S; 2.93
38) S24N; 2.97
39) T9Y; 3.31
40) L1C; 4.67
41) C23T; 3.35
42) R6K; 3.44
43) Q21E; 3.59
44) P13E; 3.7
45) G10W; 3.9
46) H4K; 2.49
47) R6L; 2.93
48) H4A; 3.02
49) F14K; 3.28
50) H8G; 2.52
51) Y7R; 2.75
52) V2I; 3.1
53) V2W; 2.57
54) C19Y; 2.08
55) C19I; 2.58
56) A3S; 3.58
57) R6P; 3.65
58) R6F; 2.69
59) L1W; 2.46
60) V2F; 2.78
61) C16E; 3.01
62) T9M; 3.16
63) Y7F; 3.2
64) P13R; 3.31
65) V2H; 4.09
66) L1Q; 3.87
67) H8F; 2.49
68) T9N; 3.05
69) H4S; 2.87
70) G10Y; 2.82
71) Q21D; 3.67
72) S24H; 3.23
73) P22W; 2.38
74) C19L; 2.39
75) E18R; 2.18
76) C19P; 3.21
77) H8C; 3.05
78) V15L; 3.2
79) C16M; 2.72
80) H8Y; 2.69
81) G10K; 2.83
82) V15R; 3.06
83) G20A; 3.06
84) H8L; 2.93
85) C19W; 1.81
86) C16W; 1.86
87) V2D; 3.87
88) V15P; 3.77
89) V15T; 3.11
90) H4W; 2.72
91) P17T; 3.04
